- SUBJECT_OF_TEST: T1, FNPCP, CP of an uncharacterized NRP gene cluster from Fischerella
- T1 chain: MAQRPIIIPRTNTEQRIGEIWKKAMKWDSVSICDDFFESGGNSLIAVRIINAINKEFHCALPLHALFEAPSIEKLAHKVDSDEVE

[
  {
    "PROTEIN": "SPPT, Sfp-like phosphopantetheinyl transferase (PPTase) from Synechocystis sp. PCC6803 (protein) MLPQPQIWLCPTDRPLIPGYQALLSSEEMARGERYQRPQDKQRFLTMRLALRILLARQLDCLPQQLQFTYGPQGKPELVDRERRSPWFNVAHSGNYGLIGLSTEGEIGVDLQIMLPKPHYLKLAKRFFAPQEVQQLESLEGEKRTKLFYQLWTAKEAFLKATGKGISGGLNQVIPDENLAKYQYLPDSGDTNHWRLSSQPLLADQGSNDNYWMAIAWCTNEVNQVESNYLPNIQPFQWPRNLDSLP",
    "RESULT_UNITS": "s⁻¹",
    "kcat": 0.168
  }
]
